# assayed target: human SIRPα expressed on cells (PMA-differentiated THP-1 macrophages; A549 cells) (human, UniProt P78324 31-504)
# method description: fluorescence microscopy saturation binding; live THP-1 macrophages
No end group written: not given here. FAM = 5(6)-carboxyfluorescein
assay metric: Kd (µM)

K(FAM)VTELTREG-NH2 [FAM-labeled nS-wt]: 148
K(FAM)VTELVREG-NH2 [FAM-labeled nS-V]: 161

(a) K(FAM)VTELFREG-NH2 [FAM-labeled nS-F]
(b) K(FAM)LETVEGTR-NH2 [FAM-labeled nS-X]
Request: Could you determine which record has the numerically smaller Kd? Candidates: a and b Field: selected label. Fill in the label of the entry you choose.
Result: a
(a: 195 µM, b: 916 µM)
